// data source = patent US5684205A

Tested on: airway epithelial cell line 4MBr-5
method notes: 36Cl chloride efflux inhibition in airway epithelial cell line 4MBr-5
Assay type: cell-based
conditions: 20 min, 10 μg/ml test compound, 20 minutes efflux, 4MBr-5 cells, expressed as a percentage of the maximal inhibition observed with NPPB
assay endpoint: inhibition at 10 µg/mL (%)
Value expressed in %; do not type the unit.

>>> print(df.to_string())
                                   molecule  reported_result
0  O=C(O)c1cc([N+](=O)[O-])ccc1NCCCc1ccccc1 [NPPB, reference compound]               20
1  O=C1C(=Cc2ccccc2)C(=O)C(c2ccc(Cl)cc2)=C1O [19/39]             31.1

Problem: So what inhibition at 10 µg/mL did O=C1C(=Cc2ccc(-c3ccccc3)cc2)C(=O)C(c2ccccc2)=C1O [17/38] get with airway epithelial cell line 4MBr-5?
Solution: 83.5

Problem: # value lookup — system airway epithelial cell line 4MBr-5, readout inhibition at 10 µg/mL, item O=C1C(=Cc2ccc(C(F)(F)F)cc2)C(=O)C(c2ccccc2)=C1O [16/37]
Solution: 58.2

Problem: # get_value(readout= inhibition at 10 µg/mL, system= airway epithelial cell line 4MBr-5) for COc1ccc(C2=C(O)C(=O)C(=Cc3ccccc3)C2=O)cc1 [18/1]
Solution: 24

Problem: Hello, I am looking for reported inhibition at 10 µg/mL with airway epithelial cell line 4MBr-5 for O=C1C(=Cc2ccccc2O)C(=O)C(c2ccccc2)=C1O [23/43] . Could you help?
Solution: 36.4

Problem: Identify the measured inhibition at 10 µg/mL of O=C1C(=Cc2ccc(Cl)cc2Cl)C(=O)C(c2ccccc2)=C1O [15/36] for airway epithelial cell line 4MBr-5.
Solution: 37.7

Problem: Please tell me: inhibition at 10 µg/mL of COc1ccc(C=C2C(=O)C(O)=C(c3ccccc3)C2=O)cc1 [2/24] , system airway epithelial cell line 4MBr-5?
Solution: 28.6

Problem: API: value(readout= inhibition at 10 µg/mL, system= airway epithelial cell line 4MBr-5, query= CCN(CC)c1ccc(C=C2C(=O)C(O)=C(c3ccccc3)C2=O)cc1 [20/40] )
Solution: 22.7

Problem: Request body: readout inhibition at 10 µg/mL, system airway epithelial cell line 4MBr-5, query O=C1C(=Cc2ccc(OCc3ccccc3)cc2)C(=O)C(c2ccccc2)=C1O [21/41] . Return the value.
Solution: 50.6

Problem: Record lookup: for airway epithelial cell line 4MBr-5, what inhibition at 10 µg/mL belongs to COc1ccc(C2=C(O)C(=O)C(=Cc3ccc(Cl)c(Cl)c3)C2=O)cc1 [22/42] ?
Solution: 65
